- tested.on: glucosylceramide synthase (GCS) (Homo sapiens (Human), UniProt Q16739)
- Sequence (Q16739 whole entry): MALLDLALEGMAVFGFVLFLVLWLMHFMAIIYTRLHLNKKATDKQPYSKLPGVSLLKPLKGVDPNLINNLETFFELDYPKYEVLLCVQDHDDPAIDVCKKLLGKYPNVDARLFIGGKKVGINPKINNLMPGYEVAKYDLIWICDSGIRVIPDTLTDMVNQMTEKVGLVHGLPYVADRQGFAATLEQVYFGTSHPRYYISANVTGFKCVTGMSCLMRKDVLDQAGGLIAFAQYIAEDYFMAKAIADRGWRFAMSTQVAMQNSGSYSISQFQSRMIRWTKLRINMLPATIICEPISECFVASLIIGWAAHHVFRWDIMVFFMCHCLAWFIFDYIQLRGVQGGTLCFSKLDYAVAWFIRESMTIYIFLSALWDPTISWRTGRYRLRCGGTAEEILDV
- test.details: UDP-Glo glucosylceramide synthase biochemical assay
- condition: endogenous GCS in Golgi preparations from human A375 malignant melanoma skin cells; C6 ceramide and UDP-glucose substrates; 20 h incubation at room temperature; UDP detected by luminescence
- Text: A UDP-Glo™ glucosylceramide synthase biochemical assay was utilized to evaluate the effect of test compounds on the activity of endogenous levels of GCS enzyme contained within Golgi preparations isolated from human A375 malignant melanoma skin cells. […] Using Promega's UDP-Glo™ Glycosyltransferase assay kit (Promega Corporation, Madison, WI, USA (Promega)), GCS activity was indirectly measured by detecting the amount of UDP produced. […] The generated light was detected using a luminometer. […]
measurement.type: log10 EC50 (log10 of the value in nM)
Values below are the log10 of the recorded EC50, with nM as the unit.

[[record]]
molecule = "COc1ccc(-n2nc(C(=O)N3CCN4CCC3C(F)(F)C4)c3c2CCOC3)cc1 (single isomer, unassigned) [Compound 2]"
numeric_value = 3.89

[[record]]
molecule = "Cc1ccc(-n2nc(C(=O)N3CCN4CCC3CC4)c3c2CCC3)cc1Cl"
numeric_value = -0.52

[[record]]
molecule = "COc1ccc(-n2nc(C(=O)N3CCC4CCC(C3)N4)c3c2CCOC3)cc1 (racemic)"
numeric_value = 2.92

[[record]]
molecule = "COc1ccc(-n2nc(C(=O)N3CCCNCC3C)c3c2CCOC3)cc1 (racemic)"
numeric_value = 2.40

[[record]]
molecule = "COc1ccc(-n2nc(C(=O)N3CCN4CCC3CC4)c3c2CCC3)cc1F"
numeric_value = -0.05

[[record]]
molecule = "COc1ccc(-n2nc(C(=O)N3CCCN(C)CC3)c3c2CCOC3)cc1"
numeric_value = 2.97


# input Could you share which log10 EC50 value was measured for "COc1ccc(-n2nc(C(=O)N3CCN4CCC3CC4)c3c2CCC3)cc1C" ?
# output -0.40

# input Can you look up the measured log10 EC50 of COc1ccc(-n2nc(C(=O)N3CCN4CCC3C4)c3c2CCOC3)cc1 (racemic) for me?
# output 2.26

The measured values listed here are drawn from patent US20250171467A1.
